Assay: NCI Yeast Anticancer Drug Screen. Data for the rad14 strain (AID 159);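 further: 0% = growth of vehicle-treated control cultures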
Details: S. cerevisiae rad14 strain growth inhibition; at 33.0 µM; hits give high values
About 79,000 compounds went through this panel and 15% of them were active in at least one assay; those are over-represented in the sample as a whole.
Quick rule for you: growth inhibition at 70% or higher means 1, lower means -1.

Completed entries (count: 2):
# compound, discrete_label
measured = [
    ("O=Nn1c2ccccc2c2ccccc21", -1),
    ("COc1cccc(C(c2cc3c(cc2O)OCO3)N2CCOCC2)c1OC (stereo unspecified)", -1),
]

*Q* API: above_or_equal(metric=growth inhibition, cutoff=70%) for item `O=C(O)c1cccc2cccc(-c3c4ccc(=O)cc-4oc4cc(O)ccc34)c12`
*A* 1

====

Experiment: NCI Yeast Anticancer Drug Screen. Data for the rad50 strain (AID 155);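 further: 0% = growth of vehicle-only cultures of the same strain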
Settings: S. cerevisiae rad50 strain growth inhibition; at 3.7 µM
Compounds without any hit were thinned out: in the full panel of roughly 79,000, 15% have a hit. Active and inactive are the calls of the source. No stated cut-off is given here; in the data, active means growth inhibition above about 70%; inactive means the rest.
Thanks in advance; please answer with one of these: YES for active, NO for inactive

# molecule, discrete_label
measured = [
    ("CC(C)c1[nH]nc(C(N)=O)c1N=NN(C)C", "NO"),
    ("CCN(CC)CC(O)c1cc(-c2ccc(Cl)cc2)nc2c(-c3ccccc3)cccc12 (stereo unspecified)", "NO"),
    ("OB(O)c1ccccc1C#Cc1ccccc1B(O)O", "NO"),
    ("Oc1ccc(C=Nc2ccccc2O)cc1", "YES"),
    ("COC(=O)CSc1nnc(CSc2ccc(Cl)cc2)n1-c1ccccc1", "NO"),
]

Now for another entry.
*Q* Write down the call the test reported for this molecule. Item: `O=[N+]([O-])c1cccc2nc3ccccc3c(NCCc3cccc[n+]3[O-])c12`
*A* NO

====

Test: NCI Yeast Anticancer Drug Screen. Data for the rad14 strain (AID 159);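 further: 0% = growth of vehicle-treated control cultures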
Conditions: S. cerevisiae rad14 strain growth inhibition; at 100.0 µM; hits give high values
About 79,000 compounds went through this panel and 15% of them were active in at least one assay; those are over-represented in the sample as a whole.
readout_name: growth inhibition (%)
State just the number; it will be interpreted in %.

Some solved entries appear below for comparison.
# compound, growth inhibition (%)
rows = [
    ("NCc1c(O)ccc2ccccc12", 99),
    ("Clc1c(Cl)c(Cl)c2n[nH]nc2c1Cl", 94),
]

We next turn to a different compound, shown below.
*Q* # query: growth inhibition of entry Cc1cc(C)c(N2C(=O)CC(Sc3ccccc3N)C2=O)c(C)c1 (stereo not drawn)
*A* -45

====

Experiment: NCI Yeast Anticancer Drug Screen. Data for the sgs1 strain (AID 173);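 further: 0% = growth of vehicle-only control cultures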
Details: S. cerevisiae sgs1 mutant, at 11.0 µM
About 79,000 compounds went through this panel and 15% of them were active in at least one assay; those are over-represented in the sample as a whole. Activity calls are given as the source filed them. No stated cut-off is given here; in the data, active means growth inhibition above about 70%; inactive means the rest.
Thanks in advance; please answer with one of these: true (1) (active), false (0) (inactive)

*Q* Write down the call the test reported for this compound. Item: `C/C(=N\NC(=S)NNC(=S)N(C)c1ccccc1)c1ccccn1`
*A* true (1)

*Q* Thanks! And `Cc1ccc(N=Nc2ccc(O)c(C)c2)cc1` ?
*A* true (1)

====

Assay: NCI Yeast Anticancer Drug Screen. Data for the mlh1 strain (AID 171);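 further: 0% = growth of vehicle-treated control cultures of the same strain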
Conditions: S. cerevisiae mlh1 strain growth inhibition; at 100.0 µM
The panel holds about 79,000 compounds, 15% with a hit somewhere; the sample as a whole holds those more often. Calls of active or inactive are those of the source. Cut-off read from the data, not from the text of the source: active = growth inhibition above about 70%; inactive = the rest.
Thanks in advance; please answer with one of these: t (active), f (inactive)

Completed entries (count: 8):
# compound, discrete_label
data = [
    ("Nc1cc(S(N)(=O)=O)ccc1SSc1ccc(S(N)(=O)=O)cc1N", "t"),
    ("C=C(C)[C@@H]1CCc2c(O)c(O)c(=O)cc(C)c2C1", "t"),
    ("O=C(Nc1ccc2c(c1)Cc1c-2ccc([N+](=O)[O-])c1F)C(F)(F)F", "f"),
    ("O=C1CSC(=S)N1Cc1ccc(Cl)cc1Cl", "t"),
    ("COc1ccc(/C=C2\\SC(=S)N(C=C3C(=O)NC(=S)NC3=O)C2=O)cc1OC", "t"),
    ("CCCCCCCCCCCCCCCCCCNC(=S)/N=C\\C1=C(O)c2ccccc2C1=O", "f"),
    ("N#Cc1sc2c(c1OC(=O)c1ccco1)c(=O)n(-c1ccccc1)c(=S)n2-c1ccccc1", "f"),
    ("CN=C(N)N/N=C(\\C)c1ccc2oc3ccc(/C(C)=N/NC(N)=NC)cc3c2c1", "t"),
]

Now for another entry.
*Q* Write down the call the test reported for this compound. Item: `CCCCOC(=O)CSSCC(=O)OCCCC`
*A* t
